Exercise: for every item that follows, state its recorded nuclear beta-catenin stimulation.
# Protocol Text: stimulators of nuclear beta-catenin in C2C12, primary screen, imaging, WNT3A-conditioned medium, mouse C2C12, NPC library (AID 1117326)
# Condition: stimulation, at 2 µM, stronger effect = higher value
Answers are plain numbers, in %.

Previously resolved entries follow.
# Compound, Unit Text, nuclear beta-catenin stimulation
records = [
    ("O=P(O)(O)C(O)(Cn1ccnc1)P(=O)(O)O", "%", 1),
    ("N#Cc1c(N(CC(=O)O)CC(=O)O)sc(C(=O)O)c1CC(=O)O", "%", -0.9),
    ("CNS(=O)(=O)CCc1ccc2[nH]cc(C3CCN(C)CC3)c2c1", "%", 0.4),
    ("O=C1NCN(c2ccccc2)C12CCN(CCCC(c1ccc(F)cc1)c1ccc(F)cc1)CC2", "%", 2.1),
]

For each of the items listed, what is its nuclear beta-catenin stimulation?
1. C#C[C@]1(O)CC[C@H]2[C@@H]3CCc4cc(OC5CCCC5)ccc4[C@H]3CC[C@@]21C
2. CC(C)OC(=O)OCOP(=O)(CO[C@H](C)Cn1cnc2c(N)ncnc21)OCOC(=O)OC(C)C
3. O=C(O)CCc1nc2ccccc2[nH]1
4. CCCCCOC(=O)Nc1nc(=O)n([C@@H]2O[C@H](C)[C@@H](O)[C@H]2O)cc1F
5. CCC(C)(C)c1ccc(CC(C)CN2C[C@@H](C)O[C@@H](C)C2)cc1 (some centres undefined)
6. CN(N=O)C(=O)N[C@@H]1[C@@H](O)[C@H](O)[C@@H](CO)O[C@@H]1O
7. CC(C)(CO)[C@@H](O)C(=O)NCCC(=O)NCCSSCCNC(=O)CCNC(=O)[C@H](O)C(C)(C)CO
8. CN1C(=O)OC(C)(C)C1=O

1: 0.5; 2: 3; 3: 2.5; 4: -1.4; 5: 0.5; 6: 2.9; 7: -1.3; 8: -0.1

For each of the items listed, what is its nuclear beta-catenin stimulation?
1. C[C@]12CC[C@H]3[C@@H](CCC4=CC(=O)CC[C@@]43C)[C@@H]1CC[C@@H]2C(=O)CO
2. O=C1OC2(c3ccc(O)cc3Oc3cc(O)ccc32)c2ccccc21
3. C=CC(C)(O)CCC=C(C)CCC=C(C)C (centres undefined)
4. CC(C)(C)CC(C)(C)c1cc(Cc2cc(C(C)(C)CC(C)(C)C)cc(-n3nc4ccccc4n3)c2O)c(O)c(-n2nc3ccccc3n2)c1
5. OC[C@@H](O)[C@@H](O)[C@H](O)[C@H](O)CO
6. Cc1nc2c([nH]1)c(=O)n(C)c(=O)n2Cc1ccco1

[5.6, 3.4, -0.9, 2.5, 0.6, -0.9]

Respond only with nuclear beta-catenin stimulation recorded for Cc1ccc(-n2nc(C(C)(C)C)cc2NC(=O)Nc2ccc(OCCN3CCOCC3)c3ccccc23)cc1 7

###

# Protocol Text: LFS_MB_2R medulloblastoma cell growth inhibition, synergistic combos for chromothripsis tumors, cisplatin combos (AID 1671457);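 further: cells exposed to compound for four days before readout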
# Condition: LFS_MB_2R medulloblastoma cells, measured here: combination with cisplatin, at 5 µM, stronger effect = higher value
Would you please tag the item 1 when its inhibition is -10% or above, and 0 when it is below?

Reference set (3 entries):
# Structure Smiles, Class
measured = [
    ("CCn1nc(C(=O)O)c(=O)c2cc3c(cc21)OCO3", 0),
    ("O=c1[nH]c(=O)n([C@H]2C[C@H](O)[C@@H](CO)O2)cc1Br", 0),
    ("COc1c2ccoc2cc2oc(=O)ccc12", 1),
]

Could you please find out whether Cc1ccc2nc(N)[nH]c(=O)c2c1Sc1ccncc1 has inhibition that meets -10% or exceeds it? 0

Could you please find out whether O=C(CCCCCCC(=O)Nc1ccccc1)NO has inhibition that meets -10% or exceeds it? 1

Could you please find out whether O=c1[nH]c(=O)n([C@H]2C[C@H](O)[C@@H](CO)O2)cc1C(F)(F)F has inhibition that meets -10% or exceeds it? 0

###

# Protocol Text: HepG2 cytotoxicity, primary screen, cytotoxicity control for P. falciparum antimalarial project, cell-based, ATP luminescence (AID 2303);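 further: 0% = DMSO wells and 100% = digitonin-killed cells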
# Condition: HepG2 viability, 24-48 h, at 10 µM, stronger effect = higher value
Label True when inhibition is strictly below 20%; at or above that, label False.

# Compound, Class
data = [
    ("NC1=NC(c2ccccc2)(c2ccccc2)C(=O)N1C1CCCCC1", "True"),
    ("CN1CCN(Cc2ccc(-c3cc4nccc(Nc5ccc(Oc6ccccc6)cc5)c4cc3Cl)o2)CC1", "True"),
    ("CC(C)CNCc1cccc(-c2ccc(CNC3CCN(Cc4ccccc4)CC3)cc2)c1", "False"),
]

API: the following record is the query input.
Strictly below 20% in inhibition? O=C(/C=C/c1ccc(Cl)c(Cl)c1)NC1CCC(CN2CCC(c3c[nH]c4ccncc34)CC2)CC1 (centres undefined) True

###

Exercise: for every item that follows, state its recorded parasite load remaining.
# Protocol Text: liver-stage malaria parasite growth inhibition, primary screen, cell-based, HepG2, luciferase luminescence, HepG2 viability (AID 624349);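 further: 100% = mean of DMSO negative control wells on the same plate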
# Condition: P. berghei liver stage in HepG2, luciferase luminescence, concentration not given here; stronger effect = lower value
Give bare numbers, in %.

# Compound, parasite load remaining (%)
measured = [
    ("CC(=O)c1ccc2c(c1)N(CCCN1CCC(CCO)CC1)c1ccccc1S2", 69.8),
    ("C#C[C@]1(OC(C)=O)CC[C@H]2[C@@H]3CCC4=C[C@@H](OC(C)=O)CC[C@@H]4[C@H]3CC[C@@]21C", 82.1),
    ("Cc1occc(=O)c1O", 65.4),
    ("O=C(OOC(=O)c1ccccc1)c1ccccc1", 39),
    ("COc1ccccc1O", 50.2),
]

For each of the items listed, what is its parasite load remaining?
1. O=C(NCC(O)CO)c1c(I)c(C(=O)NCC(O)CO)c(I)c(N(CCO)C(=O)CO)c1I (stereo unspecified)
2. CCCCN1C[C@H](O)[C@@H](O)[C@H](O)[C@H]1CO

1: 117; 2: 45.7

For each of the items listed, what is its parasite load remaining?
1. C=C1C[C@H]2[C@@H]3C=C(C)C4=CC(=O)CC[C@]4(C)[C@H]3CC[C@]2(C)[C@@]1(OC(C)=O)C(C)=O
2. CCOc1nc2cccc(C(=O)O)c2n1Cc1ccc(-c2ccccc2-c2nn[nH]n2)cc1
3. Oc1cc(O)c2c(c1)O[C@H](c1ccc(O)c(O)c1)[C@@H](O)C2
4. CC(C)Cn1cnc2c(N)nc3ccccc3c21

14.5
51
116
11.9

###

# System: F380Y/beta1
# Protocol Text: modulators of BK channel variants, profiling panel, selectivity assay, cell-based, U2OS BacMam, thallium flux, beta subunits (AID 1259406);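 further: initial slope of Thallos dye fluorescence rise after thallium is added; log ratio against the mean of 0.3% DMSO vehicle wells on the same plate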
# Condition: at 30 µM
Our labelling divides records by log fold change Tl+ flux into ranges: lower level: < -0.009; middle level: ≥ -0.009 and < 0.05; upper level: ≥ 0.05

Reference set (5 entries):
# Molecule, Class
rows = [
    ("CN/C(=C\\[N+](=O)[O-])NCCSCc1ccc(CN(C)C)o1", "lower level"),
    ("CON=C(C(=O)NC1C(=O)N2C(C(=O)O)=C(COC(C)=O)CSC12)c1csc(N)n1 (centres undefined)", "lower level"),
    ("CCn1cc(C(=O)O)c(=O)c2ccc(C)nc21", "middle level"),
    ("O=C(O)CCc1nc(-c2ccccc2)c(-c2ccccc2)o1", "upper level"),
    ("CCC(=O)OCC(=O)[C@@]1(OC(=O)CC)[C@@H](C)C[C@H]2[C@@H]3CCC4=CC(=O)C=C[C@]4(C)[C@@]3(Cl)[C@@H](O)C[C@@]21C", "lower level"),
]

State the class of the molecule shown: O=[N+]([O-])c1cccc2cn[nH]c12 upper level

State the class of the molecule shown: CCN1CCN(C(=O)N[C@@H](C(=O)N[C@@H]2C(=O)N3[C@@H]2SC(C)(C)[C@@H]3C(=O)O)c2ccccc2)C(=O)C1=O middle level

State the class of the molecule shown: CCCC(=O)Nc1ccc(OCC(O)CNC(C)C)c(C(C)=O)c1 (centres undefined) middle level

###

# Protocol Text: growth inhibition of GSK3B-pretreated HCT116 cells – cell-based, CellTiter-Glo, 0.2 to 20 µM (AID 1117336)
# Condition: HCT116 viability after GSK3B inhibitor, at 20 µM, stronger effect = higher value
Label Satisfied when viability decrease is strictly below -10%; at or above that, label Not satisfied.

Reference set (10 entries):
# Compound, Class
records = [
    ("CC(=O)SC[C@@H](C)C(=O)N1CCC[C@H]1C(=O)N[C@@H](Cc1ccccc1)C(=O)O", "Satisfied"),
    ("CCN1CCC[C@H]1CNC(=O)c1c(OC)ccc(Br)c1OC", "Not satisfied"),
    ("Cc1cc(CC(C)CC(C)(C)C)n(O)c(=O)c1 (configuration not stated)", "Not satisfied"),
    ("O=C(NCC(O)CO)c1c(I)c(C(=O)NCC(O)CO)c(I)c(N(CCO)C(=O)CO)c1I (configuration not stated)", "Not satisfied"),
    ("CSCC[C@H](NC(=O)[C@H](Cc1c[nH]c2ccccc12)NC(=O)CCNC(=O)OC(C)(C)C)C(=O)N[C@@H](CC(=O)O)C(=O)N[C@@H](Cc1ccccc1)C(N)=O", "Satisfied"),
    ("Cc1cc(NS(=O)(=O)c2ccc(N)cc2)no1", "Not satisfied"),
    ("O=C(O)CP(=O)(O)O", "Satisfied"),
    ("CC(=O)OCC(=O)[C@@]1(OC(C)=O)[C@@H](C)C[C@H]2[C@@H]3C[C@H](F)C4=CC(=O)C=C[C@]4(C)[C@@]3(F)[C@@H](O)C[C@@]21C", "Not satisfied"),
    ("CN1CCC(=C2c3ccccc3CCc3cccnc32)CC1", "Not satisfied"),
    ("CN1CC(=O)N/C1=N/C(=O)Nc1cccc(Cl)c1", "Not satisfied"),
]

Strictly below -10% in viability decrease? O=C(Nc1cccc2c(=O)cc(-c3nn[nH]n3)oc12)c1ccc(OCCCCc2ccccc2)cc1 Not satisfied

Strictly below -10% in viability decrease? CCOC(=O)Nc1ccc2c(c1)N(C(=O)CCN1CCOCC1)c1ccccc1S2 Satisfied

Strictly below -10% in viability decrease? N#Cc1cc(NC(=O)C(=O)O)c(Cl)c(NC(=O)C(=O)O)c1 Satisfied

Strictly below -10% in viability decrease? CCCCC(CC)COC(=O)c1ccccc1O (configuration not stated) Not satisfied

Strictly below -10% in viability decrease? Cc1ccc(Cl)c(OCC(O)CNC(C)(C)C)c1 (configuration not stated) Satisfied

Strictly below -10% in viability decrease? CN1CCN(C2=Nc3cc(Cl)ccc3Nc3ccccc32)CC1 Not satisfied

Strictly below -10% in viability decrease? Nc1ccc2cc3ccc(N)cc3nc2c1 Not satisfied

Strictly below -10% in viability decrease? CC(C(=O)O)c1ccc(C(=O)c2ccccc2)s1 (configuration not stated) Not satisfied

Strictly below -10% in viability decrease? NC(CO)(CO)CO Not satisfied

Strictly below -10% in viability decrease? COC(=O)C1=C(C#N)NC(C)=C(C(=O)OC(C)C)C1c1cccc([N+](=O)[O-])c1 (configuration not stated) Not satisfied

Strictly below -10% in viability decrease? CN(C(=O)C(Cl)Cl)c1ccc(OC(=O)c2ccco2)cc1 Satisfied

Strictly below -10% in viability decrease? CCCCN1C[C@H](O)[C@@H](O)[C@H](O)[C@H]1CO Satisfied
